- System: L1210 leukemia ip in BDF1 mice, survival T/C
- assay.procedure: NCI In Vivo Anticancer Drug Screen. Data for tumor model L1210 Leukemia (intraperitoneal) in B6D2F1 (BDF1) mice
- condition.context: endpoint: mean survival time; dose: 12.5 mg/kg/injection; schedule: Q01DX009 (ip); vehicle: saline; higher = longer survival
Toxic doses and inconclusive results are not listed.
assay.metric: T/C

Query COc1ccc2c3csc4ccccc4c-3nc2c1 yields T/C of 98 % of control

Query NCCCn1c2ccccc2c2cnccc21 yields T/C of 101 % of control

Query Cc1[nH]c(=O)[nH]c(=O)c1/C=C/C(=O)NC(CO)CC(C)C (centres undefined) yields T/C of 98 % of control

Query C[P+]1(C)CC2OC2C1 (centres undefined) yields T/C of 91 % of control

* * *

- Test system: L1210 leukemia ip in BDF1 mice, survival T/C
- assay.procedure: NCI In Vivo Anticancer Drug Screen. Data for tumor model L1210 Leukemia (intraperitoneal) in B6D2F1 (BDF1) mice
- condition.context: endpoint: mean survival time; dose: 200.0 mg/kg/injection; schedule: Q01DX001 (ip); vehicle: carboxymethylcellulose (CMC); higher = longer survival
Toxic doses and inconclusive results are not listed.
Would you kindly list T/C for each of these molecules?

Query Cc1cccc(NC(=O)NCCO)c1 yields T/C of 109 % of control

Query CCCC(=O)C(CC)C(=O)Nc1ccccc1 (configuration not stated) yields T/C of 105 % of control

Query Cc1cc2oc(=O)c3c(c2c(O)c1CN1CCCCC1)CCCC3 yields T/C of 98 % of control

Query CS(=O)(=O)n1c(CO)nc2ccccc21 yields T/C of 92 % of control

Query O=C(CC(c1ccccc1)C(C(CC(=O)c1ccccc1)c1ccccc1)[N+](=O)[O-])c1ccccc1 (configuration not stated) yields T/C of 95 % of control

Query CCOC(=O)CN(C)c1ccccc1 yields T/C of 93 % of control

Query CC(=O)C(C)C(=O)c1cc(C)c(Br)s1 (configuration not stated) yields T/C of 97 % of control

Query CC(=O)OCCC/C(=C\c1c2ccccc2cc2ccccc12)[N+](=O)[O-] yields T/C of 94 % of control

Query COc1cc(/C=N/NC(=O)c2cccc([N+](=O)[O-])c2)ccc1O yields T/C of 96 % of control

Query CCOC(=O)CN1CC(C)(C)N(CC(=O)OCC)CC1(C)C yields T/C of 93 % of control

Query CCN(CC)c1ccc(Sc2ccc([N+](=O)[O-])cc2[N+](=O)[O-])cc1 yields T/C of 92 % of control

Query O=C(NCc1ccccc1)C(Cc1ccccc1)(Cc1ccccc1)C(=O)NCc1ccccc1 yields T/C of 90 % of control

* * *

- System: L1210 leukemia ip in BDF1 mice, survival T/C
- assay.procedure: NCI In Vivo Anticancer Drug Screen. Data for tumor model L1210 Leukemia (intraperitoneal) in B6D2F1 (BDF1) mice
- condition.context: endpoint: mean survival time; dose: 200.0 mg/kg/injection; schedule: Q04DX003 (ip); vehicle: carboxymethylcellulose (CMC); higher = longer survival
Inconclusive results and toxic doses are left out.
Would you kindly list T/C for each of these molecules?

Query COC(=O)CCC(C)C1CCC2C3C(O)CC4CC(OC(C)=O)CCC4(C)C3CC(O)C12C (centres undefined) yields T/C of 88 % of control

Query CCCCCC(=O)N1CCCCC1C (centres undefined) yields T/C of 95 % of control

Query COc1cc(Cl)ccc1NC(=O)C(O)C(O)C(O)C(O)CO (centres undefined) yields T/C of 100 % of control

Query CCCCCCCCCCCCCCCC(=O)N(CCCC)CCCC yields T/C of 94 % of control

* * *

- Tested on: L1210 leukemia ip in BDF1 mice, survival T/C
- assay.procedure: NCI In Vivo Anticancer Drug Screen. Data for tumor model L1210 Leukemia (intraperitoneal) in B6D2F1 (BDF1) mice
- condition.context: endpoint: mean survival time; dose: 20.0 mg/kg/injection; schedule: Q01DX001 (ip); vehicle: saline; higher = longer survival
Toxic doses and inconclusive results are not listed.
Would you kindly list T/C for each of these molecules?

Query CCP(CC)c1cccc(OC(=O)NC)c1 yields T/C of 107 % of control

Query O=C(O)c1ccc(N/N=C\c2cc(=O)[nH]c(=O)[nH]2)cc1 yields T/C of 98 % of control

Query Cc1nc(C(=O)NN)co1 yields T/C of 101 % of control

Query Cc1cc(N(CCCl)CCCl)c(C)cc1NC(=O)c1ccccc1 yields T/C of 96 % of control

Query C/C=C1\C(=O)O[C@@]23C=C[C@H]4C(C(=O)OC)=CO[C@@H](O[C@H]12)[C@H]43 yields T/C of 106 % of control

Query S=C1N/N=C/NN/C=N/N1 yields T/C of 94 % of control

* * *

Would you kindly list T/C for each of these molecules?
- Test system: L1210 leukemia ip in BDF1 mice, survival T/C
- assay.procedure: NCI In Vivo Anticancer Drug Screen. Data for tumor model L1210 Leukemia (intraperitoneal) in B6D2F1 (BDF1) mice
- condition.context: endpoint: mean survival time; dose: 50.0 mg/kg/injection; schedule: Q01DX009 (ip); vehicle: Klucel (hydroxypropylcellulose) (HPC); higher = longer survival
Toxic doses and inconclusive results are not listed.

Query CC(C)(C)C1CCC(NC(=O)C(Cl)Cl)CC1 (configuration not stated) yields T/C of 94 % of control

Query COC1=C(OC)C(=O)c2ccccc2C1=O yields T/C of 98 % of control

Query CC1CC(C#N)Nc2ccccc2N1 (configuration not stated) yields T/C of 96 % of control

Query CCOC(=O)C(C(=O)OCC)C(=O)c1cc(-c2ccc(Cl)c(Cl)c2)nc2c(Cl)cc(Cl)cc12 yields T/C of 98 % of control

Query O=NSC(c1ccccc1)(c1ccccc1)c1ccccc1 yields T/C of 94 % of control

Query CC1CCC(C(C)C)C(N(C)Cc2cc(Cl)cc(Cl)c2O)C1 (configuration not stated) yields T/C of 107 % of control

Query Cc1cccc(C)c1NC(=S)NC1CC(C)CC(C)(C)C1 (configuration not stated) yields T/C of 96 % of control

* * *

- Test system: L1210 leukemia ip in BDF1 mice, survival T/C
- assay.procedure: NCI In Vivo Anticancer Drug Screen. Data for tumor model L1210 Leukemia (intraperitoneal) in B6D2F1 (BDF1) mice
- condition.context: endpoint: mean survival time; dose: 100.0 mg/kg/injection; schedule: Q01DX001 (ip); vehicle: saline with Tween-80; higher = longer survival
Toxic doses and inconclusive results are not listed.
assay.metric: T/C

Query Fc1c(F)c(F)c([Si](c2c(F)c(F)c(F)c(F)c2F)(c2c(F)c(F)c(F)c(F)c2F)c2c(F)c(F)c(F)c(F)c2F)c(F)c1F yields T/C of 96 % of control

Query CN(CCC(=O)c1ccccc1)CCC(=O)c1ccccc1 yields T/C of 93 % of control

Query C=CCN(CC=C)/N=N\c1nc[nH]c1C(=O)OC yields T/C of 100 % of control

Query CCOc1ccc(OCC)c(NC(=O)Nc2cc(Cl)ccc2OC)c1 yields T/C of 95 % of control

Query Cc1ncc(C(O)(c2ccccc2)C(C)C)n1Cc1ccccc1 (stereo not given) yields T/C of 94 % of control

* * *

- Tested on: L1210 leukemia ip in BDF1 mice, survival T/C
- assay.procedure: NCI In Vivo Anticancer Drug Screen. Data for tumor model L1210 Leukemia (intraperitoneal) in B6D2F1 (BDF1) mice
- condition.context: endpoint: mean survival time; dose: 400.0 mg/kg/injection; schedule: Q01DX001 (ip); vehicle: saline; higher = longer survival
Inconclusive results and toxic doses are left out.
Would you kindly list T/C for each of these molecules?

Query OC(CF)C(O)C(O)C(O)CF (stereo not drawn) yields T/C of 93 % of control

Query O=Cc1cc(=O)[nH]c(=O)[nH]1 yields T/C of 97 % of control

Query COP1(=O)OC(C)C(C)O1 (stereo not drawn) yields T/C of 93 % of control

Query Cc1cc(/C=N/NC(=O)CCCC(=O)N/N=C/c2cc(C)n(-c3ccccc3)c2C)c(C)n1-c1ccccc1 yields T/C of 89 % of control

Query O=C(Nc1nc2ccccc2[nH]1)C(F)(F)F yields T/C of 97 % of control

Query NC(=O)C(c1ccccc1)C(O)c1ccccc1 (stereo not drawn) yields T/C of 101 % of control

Query CCCCCCCCCCCCCCCCCC1=NC(C)CC(C)(C)O1 (stereo not drawn) yields T/C of 91 % of control

Query CN(C)c1ccc(C=Nc2cc([N+](=O)[O-])ccc2O)cc1 yields T/C of 91 % of control

* * *

- Test system: L1210 leukemia ip in BDF1 mice, survival T/C
- assay.procedure: NCI In Vivo Anticancer Drug Screen. Data for tumor model L1210 Leukemia (intraperitoneal) in B6D2F1 (BDF1) mice
- condition.context: endpoint: mean survival time; dose: 50.0 mg/kg/injection; schedule: Q01DX001 (ip); vehicle: saline; higher = longer survival
Toxic doses and inconclusive results are not listed.
assay.metric: T/C

Query CCCCOP(=O)(N1CC1C)N1CC1C (centres undefined) yields T/C of 164 % of control

Query COC(=O)c1ccc(NCC(C)(C)N)cc1 yields T/C of 101 % of control

Query CCCCCCCCN yields T/C of 101 % of control

Query CN(C(=O)CCC(=O)O)c1cc([N+](=O)[O-])ccc1OCc1ccccc1 yields T/C of 108 % of control

Query O=C1c2cccc3cccc(c23)C(=O)N1c1ncn[nH]1 yields T/C of 94 % of control

Query CN(C)C(c1ccccc1)c1ccccc1 yields T/C of 96 % of control

Query CNc1nc2c(N)ncnc2n1C1OC(CO)C(O)C1O (centres undefined) yields T/C of 104 % of control

Query OC1Cn2cc(Br)c[n+]2C1 (centres undefined) yields T/C of 94 % of control

Query C(=N\N=c1\[nH][nH]/c(=N/N=C/c2ccc(-c3ccccc3)cc2)c2ccccc12)/c1ccc(-c2ccccc2)cc1 yields T/C of 110 % of control

Query CS(=O)(=O)OCCC(=O)N1CCN(C(=O)CCOS(C)(=O)=O)CC1 yields T/C of 121 % of control

Query Nc1ccc(/C=C/c2ccc(N)cc2S(=O)(=O)O)c(S(=O)(=O)O)c1 yields T/C of 97 % of control

Query Cc1cc(/C=N/NC(=O)CCCC(=O)N/N=C/c2cc(C)n(-c3ccccc3)c2C)c(C)n1-c1ccccc1 yields T/C of 98 % of control

Query CCCCCCCCCCCCC/C=N/Nc1nnc(N/N=C/CCCCCCCCCCCCC)c2ccccc12 yields T/C of 106 % of control

Query C[CH2][Sn]([CH2]C)([O]S(=O)(=O)CC12CCC(CC1=O)C2(C)C)[O]S(=O)(=O)CC12CCC(CC1=O)C2(C)C yields T/C of 114 % of control

Query ClCc1cccc2c(CCl)cccc12 yields T/C of 101 % of control

Query NCCN(CCN)CCN yields T/C of 108 % of control

Query Nc1c2c([nH]c(=O)c1N=O)CCC2 yields T/C of 95 % of control

Query O=[N+]([O-])c1ccc2nncn2c1 yields T/C of 91 % of control

Query O=Cc1cc(=O)[nH]c(=O)[nH]1 yields T/C of 109 % of control

Query O=[N+]([O-])c1ccc(P(=O)(O)O)cc1 yields T/C of 103 % of control

Query O=C(Cc1ccccc1)ONC(CCCCNC(=O)OCc1ccccc1)C(=O)Nc1ccc(Cc2ccc(NC(=O)C(CCCCNC(=O)OCc3ccccc3)NC(=O)OCc3ccccc3)cc2)cc1 (centres undefined) yields T/C of 95 % of control

Query CCCCC(CC)COP(=O)(OCC(CC)CCCC)c1ccccc1 (centres undefined) yields T/C of 100 % of control

Query O=C(/C=C\c1ccc(Cl)cc1)OCCCCOC(=O)/C=C/c1ccc(Cl)cc1 yields T/C of 96 % of control

Query O=C(CC1CCCCC1O)Nc1ccccc1 (centres undefined) yields T/C of 97 % of control

Where these numbers come from: PubChem BioAssay AID248
